- Protocol notes: NCI Yeast Anticancer Drug Screen. Data for the bub3 strain (AID 167)
- Condition summary: S. cerevisiae bub3 mutant strain, at 50.0 µM (retest, dose inferred, filed as 5.0), active compounds read high
This is part of a sample that, as a whole, favours compounds with a hit. Of some 79,000 tested, about 15% had one in any assay. The source made the active and inactive calls. No stated cut-off is given here; in the data, active means growth inhibition above about 70%; inactive means the rest.
Quantity: growth inhibition

Look over these answered cases.
CCCCCCCCC(N)CCCCCCCC = 98% (active)
Cc1ccc2cc3ccccc3c(-c3ccccc3)c2c1 = -12% (inactive)
CC1=C(C(=O)Nc2cccc(C(F)(F)F)c2)C(c2ccccc2F)C(C(=O)Nc2cccc(C(F)(F)F)c2)=C(C)N1 = 37% (inactive)

For each of the compounds below, state growth inhibition.
1. CCCCCCCCCCCCCC1=NCC(C)(C)N1
2. CC[C@@H](C(=O)[C@@H](C)[C@@H](O)[C@H](C)CCc1ccc(C)c(O)c1C(=O)O)[C@H]1O[C@](CC)([C@H]2CC[C@](O)(CC)[C@H](C)O2)C[C@@H]1C

Result:
1: 100% (active); 2: 98% (active)

* * *

- Protocol notes: NCI Yeast Anticancer Drug Screen. Data for the rad50 strain (AID 155);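 further: 0% = growth of vehicle-only cultures of the same strain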
- Condition summary: S. cerevisiae rad50 strain growth inhibition; at 5.0 µM (retest, dose inferred, filed as 0.5)
The panel holds about 79,000 compounds, 15% with a hit somewhere; the sample as a whole holds those more often. Active and inactive are the calls of the source. Cut-off read from the data, not from the text of the source: active = growth inhibition above about 70%; inactive = the rest.
Respond only with the outcome that fits, drawn from true (1) = active, false (0) = inactive

Cc1ccc2c(c1)CSCCO2 = true (1)
CC=CCOc1cc(NC(=S)OC(C)C)ccc1Cl (mixture of isomers) = false (0)
COc1ccc2c(c1)CC1c3c(ccc(OC)c3O)CC2N1C (configuration not stated) = false (0)
O=C(NCCCl)N1CCC(CN=c2cc3n(-c4ccc(Cl)cc4)c4ccccc4nc-3cc2Nc2ccc(Cl)cc2)CC1 = false (0)
C#CCOC(=O)Nc1nc2ccc(SC#N)cc2s1 = false (0)
Cc1[nH]nc(C(=O)OC(C)C)c1N=NN(C)C = false (0)

Problem: Lab log entry: Nc1cc(Br)cc2c1[nH]c1ccc(Br)cc12 — outcome as called in the assay?
Result: false (0)

Problem: Lab log entry: [Br][Pt+2][Br].[NH-]c1cccc(I)c1.[NH-]c1cccc(I)c1 — outcome as called in the assay?
Result: false (0)

Problem: Lab log entry: O=c1[nH]c2cc(Cl)ccc2nc1/C=C(\O)c1ccc(N2CCN(c3ccc(/C(O)=C/c4nc5ccc(Cl)cc5[nH]c4=O)cc3)CC2)cc1 — outcome as called in the assay?
Result: false (0)

Problem: Lab log entry: c1ccc(COc2cccc3[nH]ccc23)cc1 — outcome as called in the assay?
Result: false (0)

* * *

- Protocol notes: NCI Yeast Anticancer Drug Screen. Data for the cln2 rad14 strain (AID 165);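 further: 0% = growth equal to vehicle treated cultures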
- Condition summary: S. cerevisiae cln2 rad14 strain, at 50.0 µM
This is part of a sample that, as a whole, favours compounds with a hit. Of some 79,000 tested, about 15% had one in any assay. Active and inactive are the calls of the source. No stated cut-off is given here; in the data, active means growth inhibition above about 70%; inactive means the rest.
Respond only with the outcome that fits, drawn from 1 = active, 0 = inactive

O=C1O/C(=C\c2ccccc2)c2ccccc21 = 0
OC(C/C=N/Nc1ccccc1)(C(F)(F)Cl)C(F)(F)Cl = 1

# next compound below
Problem: Lab log entry: Cc1ccc(NC(=O)CC2SC(=Nc3ccc(Cl)cc3)NC2=O)cc1C (stereo not given) — outcome as called in the assay?
Result: 1

* * *

Field: growth inhibition. Provide a value for each of the molecules that follow.
- Protocol notes: NCI Yeast Anticancer Drug Screen. Data for the mlh1 rad18 strain (AID 175)
- Condition summary: S. cerevisiae mlh1 rad18 strain growth inhibition; at 50.0 µM (retest, dose inferred, filed as 5.0); active compounds read high
This is part of a sample that, as a whole, favours compounds with a hit. Of some 79,000 tested, about 15% had one in any assay.
Numbers only, in %.

Look over these answered cases.
O=[N+]([O-])c1ccccc1C1CN=NN1c1ccccc1 (stereo unspecified) = 37
CCCC(O)CNCc1ccc(N(C)C)cc1 (stereo unspecified) = 16
CC(Br)Cc1ccc2c(c1)OCO2 (stereo unspecified) = 1
O=C(O)c1ccccc1/C=C1\Cc2ccc3c(c2C1=O)CCCC3 = 12

For each of the molecules below, state growth inhibition.
1. Nc1ccc(Oc2ccc(-c3ccccc3)cc2)c(Cl)c1
2. O=C(O)c1c(-c2ccccc2)cc(-c2ccccc2)cc1-c1ccccc1

Result:
1: 97; 2: 98

* * *

- Protocol notes: NCI Yeast Anticancer Drug Screen. Data for the bub3 strain (AID 167)
- Condition summary: S. cerevisiae bub3 mutant strain, at 5.0 µM (retest, dose inferred, filed as 0.5), active compounds read high
The panel holds about 79,000 compounds, 15% with a hit somewhere; the sample as a whole holds those more often.
Quantity: growth inhibition (%)
Numbers only, in %.

Look over these answered cases.
O=c1c2cnccc2cc2c3ccccc3ccn12 = 5
NC1c2ccccc2-c2ccc([N+](=O)[O-])cc21 (stereo not drawn) = 1
CCCCCCCCCCn1cc[nH]c1=S = 72
CCCCCOC(=O)C1C(=O)CC(c2ccccc2)C1c1ccccc1 (stereo not drawn) = -5
CC[N+](C)(CC)CCC(=O)/C=C/c1ccccc1 = 3

For each of the molecules below, state growth inhibition.
1. COc1ccc(CCN2CC(=O)N3CSCC3C2=O)cc1OC (stereo not drawn)
2. CCCC(=O)OCc1cc(=O)n(C)c2c3c4c(cc12)c(C)cc(=O)n4CO3
3. Cc1cc(N)cc(C)c1-c1c(N)cc(Br)cc1Br
4. N#CC(c1c(Cl)cccc1N1CCCCC1)N1CCCCC1 (stereo not drawn)
5. C/C(CCC1CCc2ccccc2C1)=N\NC(N)=O (stereo not drawn)
6. C#CCNC1=CC(=O)CCC1
7. O=C1c2ccc(O)c(O)c2C(=O)c2cccc(O)c21
8. C=C1C(=O)OC2CC(C)C3C=CC(=O)C3CC12 (stereo not drawn)

Result:
[3, 84, -7, 37, 0, 14, 91, 22]

* * *

- Protocol notes: NCI Yeast Anticancer Drug Screen. Data for the sgs1 mgt1 strain (AID 161);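 further: 0% = growth of cultures given vehicle only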
- Condition summary: S. cerevisiae sgs1 mgt1 strain, at 50.0 µM, active compounds read high
About 79,000 compounds went through this panel and 15% of them were active in at least one assay; those are over-represented in the sample as a whole.
Field: growth inhibition. Provide a value for each of the molecules that follow.
One number for each entry, in %.

Look over these answered cases.
CCOC(=O)CCC(=O)Oc1ccc2c(c1OC(=O)CCC(=O)OCC)C(=O)c1ccccc1C2=O = 83
CCN(CC)CCC(=O)OC1C(C)=CC(C)C(=O)CC(C(C)CC2CCC(O)C(OC)C2)OC(=O)C2CCCCN2C(=O)C(=O)[C@@]2(O)OC(CCC2C)CC(OC)\C(C)=C/C=C/C=C/C(C)CC(C)C(=O)C1OC (some centres undefined) = 93.4
Clc1ccc(OCCC(Cn2ccnc2)c2ccc(Cl)cc2Cl)c(Cl)c1 (centres undefined) = 58.2

We now examine a further molecule.
Problem: For the molecule COc1cccc(NC(=S)NC2CC(C)CC(C)(C)C2)c1 (centres undefined) , what growth inhibition is on record?
Result: 89.8

* * *

- Protocol notes: NCI Yeast Anticancer Drug Screen. Data for the mlh1 rad18 strain (AID 175)
- Condition summary: S. cerevisiae mlh1 rad18 strain growth inhibition; at 50.0 µM; active compounds read high
About 79,000 compounds went through this panel and 15% of them were active in at least one assay; those are over-represented in the sample as a whole. Activity calls are given as the source filed them. Cut-off read from the data, not from the text of the source: active = growth inhibition above about 70%; inactive = the rest.
Quantity: growth inhibition

CC(C)C(=O)[O][Bi]([c]1ccccc1)[c]1ccccc1 = 91% (active)
FC(F)(F)c1cccc(N2CCN(c3c4c(nc5ccccc35)CCCCC4)CC2)c1 = 95.7% (active)
C=C(C)[P+](C)(c1ccccc1)c1ccccc1 = 29.3% (inactive)
C=C(CC)C[C@@H]1C[C@]2(C(=O)OC)c3[nH]c4ccccc4c3CCN2C1=O = 82.5% (active)
CCOc1ccccc1/C=C1\C=Nc2ccccc21 = 6.35% (inactive)
CN(C)Cc1ccccc1C(=O)C(=O)c1ccccc1CN(C)C = 6.45% (inactive)
CC(C)NC(=O)OCc1c2c(n(C)c1COC(=O)NC(C)C)-c1ccccc1CC2 = 98.2% (active)
CCCCCCCCCCC(C(=O)OCCCC)P(=O)(OCCCC)OCCCC (stereo unspecified) = 59.3% (inactive)
COP(=O)(OC)/C(=C/c1cn(C(c2ccccc2)(c2ccccc2)c2ccccc2)cn1)NC=O = 39.2% (inactive)
Cc1cc(Cl)cc2c1NC(=O)C2(O)C/C(=N/NC(=O)CC#N)c1cccc([N+](=O)[O-])c1 (stereo unspecified) = 76.8% (active)

We now examine a further compound.
Problem: For the compound C/C(CCC1CCc2ccccc2C1)=N\NC(N)=O (stereo unspecified) , what growth inhibition is on record?
Result: -6.5% (inactive)
